Just for reference, the supplement of paper PMC3545927 is where these values come from.

- Measurement Target: furin, P09958;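 note: purified furin at 1:10 enzyme:substrate in 50 mM HEPES pH 7.5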
- Sequence (P09958 whole entry): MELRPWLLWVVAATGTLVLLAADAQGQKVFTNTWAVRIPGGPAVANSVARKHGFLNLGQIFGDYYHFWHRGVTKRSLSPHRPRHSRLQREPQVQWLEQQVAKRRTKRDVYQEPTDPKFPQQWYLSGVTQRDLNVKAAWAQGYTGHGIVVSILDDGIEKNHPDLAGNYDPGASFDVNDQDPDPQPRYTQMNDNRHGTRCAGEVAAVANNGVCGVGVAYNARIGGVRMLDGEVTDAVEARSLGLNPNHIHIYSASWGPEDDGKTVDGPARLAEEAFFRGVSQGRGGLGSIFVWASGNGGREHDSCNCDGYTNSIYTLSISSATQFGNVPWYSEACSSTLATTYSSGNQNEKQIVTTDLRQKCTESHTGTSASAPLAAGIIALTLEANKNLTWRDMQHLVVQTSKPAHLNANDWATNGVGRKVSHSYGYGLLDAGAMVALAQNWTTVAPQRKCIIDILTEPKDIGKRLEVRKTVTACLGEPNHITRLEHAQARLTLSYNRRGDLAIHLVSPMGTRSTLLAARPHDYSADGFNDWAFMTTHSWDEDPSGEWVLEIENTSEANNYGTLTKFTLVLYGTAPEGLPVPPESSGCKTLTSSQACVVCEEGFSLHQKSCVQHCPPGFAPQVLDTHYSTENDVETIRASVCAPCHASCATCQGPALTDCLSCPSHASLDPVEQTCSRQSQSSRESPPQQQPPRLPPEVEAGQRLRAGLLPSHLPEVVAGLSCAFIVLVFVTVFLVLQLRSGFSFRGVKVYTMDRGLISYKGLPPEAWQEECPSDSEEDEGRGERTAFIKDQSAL
- Test Description: furin cleavage Z-score vs untreated control; higher = more cleavage, active = 3.5 or more, inactive = 1 or less, 8 variable residues between constant flanks
- Condition Description: 15 min
The list shows a part of the results. No count for the full screen is at hand.
Your response should consist of one outcome taken from yes = active, no = inactive

Input line: Tell me the recorded outcome of this test for CARRKRYAEHAGNASASA [FS-3056] .
Output line: yes
